This section presents compounds with their documented pIC50 values.
biological target: human TLR9 (Homo sapiens (Human), UniProt Q9NR96); test: TLR9 inhibition reporter assay (HEK-Blue SEAP reporter, ODN2006 stimulation); details: read-out: TLR9 IC50; HEK-Blue cells overexpressing human TLR9, ODN2006 5 nM, SEAP reporter;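 note: SEAP reporter under IFN-β minimal promoter with five NF-κB and AP-1 sites, 22 h incubation, compounds 0.05 nM–50 µM, inhibition relative to agonist plus DMSO versus known inhibitor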
Sequence (Q9NR96 26-1032): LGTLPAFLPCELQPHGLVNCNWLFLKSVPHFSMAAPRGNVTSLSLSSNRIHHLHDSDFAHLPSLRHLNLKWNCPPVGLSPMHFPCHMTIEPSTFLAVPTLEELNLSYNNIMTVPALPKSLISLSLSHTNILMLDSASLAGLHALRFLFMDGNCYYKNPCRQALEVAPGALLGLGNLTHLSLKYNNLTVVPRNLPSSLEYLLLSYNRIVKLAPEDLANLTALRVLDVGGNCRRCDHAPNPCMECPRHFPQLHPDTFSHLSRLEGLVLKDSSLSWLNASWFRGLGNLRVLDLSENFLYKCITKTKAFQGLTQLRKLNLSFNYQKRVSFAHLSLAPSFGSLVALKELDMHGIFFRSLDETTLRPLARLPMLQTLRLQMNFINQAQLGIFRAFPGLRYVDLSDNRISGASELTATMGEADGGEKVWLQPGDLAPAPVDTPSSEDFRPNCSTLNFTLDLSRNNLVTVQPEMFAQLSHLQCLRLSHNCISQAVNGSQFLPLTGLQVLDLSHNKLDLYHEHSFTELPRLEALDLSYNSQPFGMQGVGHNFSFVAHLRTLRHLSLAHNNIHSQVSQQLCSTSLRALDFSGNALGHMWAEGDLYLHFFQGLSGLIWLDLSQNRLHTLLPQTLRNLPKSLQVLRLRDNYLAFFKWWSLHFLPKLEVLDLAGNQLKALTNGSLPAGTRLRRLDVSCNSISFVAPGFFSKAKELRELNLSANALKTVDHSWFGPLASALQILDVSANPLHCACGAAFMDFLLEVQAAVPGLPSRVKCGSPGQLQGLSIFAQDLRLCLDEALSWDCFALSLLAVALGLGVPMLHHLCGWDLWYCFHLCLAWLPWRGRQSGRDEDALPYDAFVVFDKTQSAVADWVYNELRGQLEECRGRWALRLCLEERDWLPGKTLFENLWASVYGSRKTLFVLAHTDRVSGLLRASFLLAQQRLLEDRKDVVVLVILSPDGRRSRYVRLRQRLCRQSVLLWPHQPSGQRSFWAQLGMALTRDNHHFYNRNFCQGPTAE
pIC50: −log10 of the molar value.

{"COMPOUND": "CCc1c(-c2ccc(OC)c(OC)c2)[nH]c2ccc(C(=O)N3CCN(c4ccccn4)CC3)cc12 [Example 59]", "pIC50": "< 4.30"}
{"COMPOUND": "CCc1c(-c2ccc(OC)c(OC)c2)[nH]c2ccc(C(=O)N3CCC[C@H]3CO)cc12 [Example 28]", "pIC50": "< 4.30"}

QUERY: Please give the measured pIC50 for this compound: CCc1c(-c2ccc(OC)c(OC)c2)[nH]c2ccc(C(=O)NCc3csc(-c4ccccc4)n3)cc12 [Example 45]
RESULT: < 4.30

QUERY: Same thing, different compound: CCc1c(-c2ccc(OC)c(OC)c2)[nH]c2ccc(C(=O)NCC(C)(C)CO)cc12 [Example 72]
RESULT: < 4.30

QUERY: Same thing, different compound: CCc1c(-c2ccc(OC)c(OC)c2)[nH]c2ccc(C(=O)NCCO)cc12 [Example 69]
RESULT: < 4.30
